Test: MRT (0 to t) in Sprague-Dawley rat at 5 mg/kg, iv measured upto 24 hrs by HPLC-MS analysis
Assay type: ADME, organism-based
Settings: in vivo
measuredQuantity: MRT last at 24 h (min)
Report only the number, with the unit min understood.

Can you look up the measured MRT last at 24 h of COc1ccc(N(C)c2nc(/C=C/c3cccc(OC)c3)nc3ccccc23)cc1 for me?
46.8

----------
System: MCF7
Experiment: Antiproliferative activity against human MCF7 cells assessed as cell viability incubated for 72 hrs by MTT assay
Type: functional, cell-based
Conditions: MCF7, 72 h
measuredQuantity: pIC50
Please note pIC50 is a logarithmic value: minus log10 of concentration in mol/L. Answer with that number alone.

Observe how each entry below is paired with its result.
smilesRecord	subjectOfTest	pIC50
COc1ccc(N(C)c2nc(/C=C/c3cccc(F)c3)nc3cccc(F)c23)cc1	MCF7	6.41
CC(=O)O[C@H]1C(=O)[C@@]2(C)[C@H]([C@H](OC(=O)c3ccccc3)[C@]3(O)C[C@H](OC(=O)[C@H](O)[C@@H](NC(=O)c4ccccc4)c4ccccc4)C(C)=C1C3(C)C)[C@]1(OC(C)=O)CO[C@@H]1C[C@@H]2O	MCF7	7.43

Consider now this further molecule.
Can you look up the measured pIC50 of COc1ccc(N(C)c2nc(/C=C/c3ccc(OC)c(OC)c3)nc3ccccc23)cc1 for me?
5.46
